Target: T1, extracellular domain of activin receptor type IIB (ActRIIBecd), biotinylated (Homo sapiens (Human), UniProt Q13705 27-117, amino-biotinylated with amine-PEG3-Biotin)
T1 construct: immobilised on a streptavidin-coated sensor chip; also called biotinylated ActRIIBecd; extracellular domain of ActRIIB
T1 sequence: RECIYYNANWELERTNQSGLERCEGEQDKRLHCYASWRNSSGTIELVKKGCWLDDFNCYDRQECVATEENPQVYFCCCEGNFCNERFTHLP
Experiment: Mean KD column of Table 5; method not restated (BIAcore as Example 5); species also listed in Table 4
value type: Kd (nM)

>>> experimental_value("SEQ ID NO: 230, cysteine pairs C23-C27^a (designed binder, disulfides C23-C27 (intra)) VDFKDVGWNDHAVAPPGYHAFYCHGECPFPLADHLNSDNHAIVQTKVNSVGQAKRKGYKRLKSSCKRHPLY")
17.9
>>> experimental_value("SEQ ID NO: 316, cysteine pairs C67-C71^a, C8-C43^a, C9-C41^a, C109-C109^b (designed binder, disulfides C67-C71 (intra), C8-C43 (intra), C9-C41 (intra), C109-C109 (inter), homodimer by intermolecular disulfide) NSKDPKACCVPTELSAPSPLYLDENEKPVLKNYQDMVVHGCGCRVDFKDVGWNDHAVAPPGYHAFYCHGECPFPLADHLNSDNHAIVQTKVNSVGQAKRKGYKRLKSSCKRHPLY")
6.17

All figures here come from patent US20190071480A1.
